Measurement description: Pharmacokinetics after repeated oral administration of 250 μg/kg and 35 μg/kg of fluralaner in dogs after feeding
Assay type: in vivo, beagle dogs
Test parameters: beagle, dog, plasma, po, 216 h; oral 250/35/600 μg/kg regimen, dogs, n=6; read-out: fluralaner concentration levels, Minimum
Observation type: concentration at 216 h (ng/mL)
Write down the numeric answer in ng/mL and omit the unit.

Q: So what does the record say about concentration at 216 h for Cc1cc(C2=NOC(c3cc(Cl)cc(Cl)c3)(C(F)(F)F)C2)ccc1C(=O)NCC(=O)NCC(F)(F)F (stereo not shown) [fluralaner, Fluralaner] ?
Ans: 468

----------
Measurement description: Pharmacokinetics after repeated oral administration of 35 μg/kg of fluralaner in dogs after feeding
Assay type: in vivo, beagle dogs
Test parameters: beagle, dog, plasma, po, 35 μg/kg, 576 h; oral 35 μg/kg Days 0-3, dogs, n=6; read-out: fluralaner concentration levels, GeoMean
Protocol: The first objective of the study was to obtain the pharmacokinetic parameters after repeated oral administration of 35 μg/kg of fluralaner in dogs, 30 to 35 minutes after feeding. […] On Days 0, 1, 2 and 3, all dogs assigned to group 2 received the Investigational Veterinary Product. […] The quantity of Investigational Veterinary Product and control product administered was calculated according to the dog's individual body weight measured on Day −1. […]
Observation type: concentration at 576 h (ng/mL)
Write down the numeric answer in ng/mL and omit the unit.

Q: So what does the record say about concentration at 576 h for Cc1cc(C2=NOC(c3cc(Cl)cc(Cl)c3)(C(F)(F)F)C2)ccc1C(=O)NCC(=O)NCC(F)(F)F (stereo not shown) ?
Ans: 17.1
